Exercise: for every item that follows, state its recorded Binding Selectivity A3/A2a.
biological target: human adenosine A3 receptors (Homo sapiens, UniProt P0DMS8); construct: expressed in transfected cells; host or cells: CHO-K1; assay: Adenosine receptor binding: binding affinities at hA3 receptors ([125I]-AB MECA displacement); conditions: Table 1; ratio of Ki values

QUERY: # lookup: Binding Selectivity A3/A2a of `Cc1ccc(-c2nc(N)nc3c2nnn3Cc2cccc(C(C)(C)O)n2)o1`
RESULT: 375

QUERY: Try this compound too: `CC(C)(O)c1cccc(Cn2nnc3c(-c4cccc(C#N)c4)nc(N)nc32)n1`
RESULT: 634

QUERY: Can you handle `COCc1cccc(Cn2nnc3c(-c4ccccc4)nc(N)nc32)n1` next?
RESULT: 2893

QUERY: // same read-out, input: `Nc1nc(-c2ccccc2)c2nnn(Cc3cccc(CO[C@H]4CCOC4)n3)c2n1`
RESULT: 634

QUERY: Do the same for `COCc1cccc(Cn2nnc3c(-c4nc(C)cs4)nc(N)nc32)n1` please
RESULT: 965

----------
Target: human adenosine A1 receptors (Homo sapiens, UniProt P30542)
Construct: expressed in transfected cells; host or cells: CHO-K1
Sequence (P30542 1-326): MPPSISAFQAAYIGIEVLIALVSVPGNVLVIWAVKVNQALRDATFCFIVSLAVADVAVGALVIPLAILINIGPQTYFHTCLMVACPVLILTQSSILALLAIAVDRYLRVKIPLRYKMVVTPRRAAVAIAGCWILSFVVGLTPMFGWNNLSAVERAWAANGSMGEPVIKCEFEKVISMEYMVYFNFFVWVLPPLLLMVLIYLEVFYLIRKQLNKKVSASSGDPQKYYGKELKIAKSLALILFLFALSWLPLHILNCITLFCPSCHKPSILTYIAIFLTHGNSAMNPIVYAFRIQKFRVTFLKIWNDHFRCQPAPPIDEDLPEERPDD
Assay: Adenosine receptor binding: binding affinities at hA1 receptors ([3H]DPCPX displacement)
Details: Table 2; ratio of Ki values
EXPERIMENTAL_ENDPOINT: Binding Selectivity A1/A2a
Lab note: jot down the number only; don't add units.

QUERY: Value lookup for Binding Selectivity A1/A2a; key = Cl.Nc1nc(-c2ccco2)c2nnn(Cc3cccc(CO)n3)c2n1 [WO 02/055083 Example 213, reference compound]
RESULT: 216

QUERY: What do you get for Nc1cccc(Cn2nnc3c(-c4ccccc4)nc(N)nc32)c1 [WO 02/055083 Example 151, reference compound] ?
RESULT: 19

QUERY: Moving on to COCc1cccc(Cn2nnc3c(-c4ccc(C)o4)nc(N)nc32)n1 [WO 02/055083 Example 183, reference compound]
RESULT: 67

QUERY: Next compound up: CC(C)OCc1cccc(Cn2nnc3c(-c4ccco4)nc(N)nc32)n1 [WO 02/055083 Example 247, reference compound]
RESULT: 92

QUERY: Record: CC(C)COCc1cccc(Cn2nnc3c(-c4ccco4)nc(N)nc32)n1 [WO 02/055083 Example 217, reference compound]
RESULT: 53

----------
Target: human adenosine A3 receptors (Homo sapiens, UniProt P0DMS8)
Construct: expressed in transfected cells; host or cells: CHO-K1
Sequence (P0DMS8 1-318): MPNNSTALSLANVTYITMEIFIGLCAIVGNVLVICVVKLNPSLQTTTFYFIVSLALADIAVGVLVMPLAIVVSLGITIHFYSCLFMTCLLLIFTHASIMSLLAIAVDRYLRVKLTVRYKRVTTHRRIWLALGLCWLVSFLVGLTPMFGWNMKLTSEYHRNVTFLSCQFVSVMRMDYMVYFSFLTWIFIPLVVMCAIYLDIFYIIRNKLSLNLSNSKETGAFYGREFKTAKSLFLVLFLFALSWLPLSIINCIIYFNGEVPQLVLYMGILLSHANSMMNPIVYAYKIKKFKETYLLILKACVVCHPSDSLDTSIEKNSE
Assay: Adenosine receptor binding: binding affinities at hA3 receptors ([125I]-AB MECA displacement)
Details: Table 1; [125I]-AB MECA displacement, CHO-K1 membranes; read-out: Binding Affinity hA3-Ki
EXPERIMENTAL_ENDPOINT: pKi
Remember, pKi is on a log scale: it is -log10 of the molar concentration.

QUERY: Reported pKi for `COCc1cccc(Cn2nnc3c(-c4nc(C)cs4)nc(N)nc32)n1` : what is it?
RESULT: 5.34

QUERY: For Cc1ccc(-c2nc(N)nc3c2nnn3Cc2cccc(COCC3CCOC3)n2)o1 (racemic) then?
RESULT: 5.67

QUERY: Entry `COc1cccc(-c2nc(N)nc3c2nnn3Cc2cccc(C3(O)CCC3)n2)c1` please
RESULT: 5.71

QUERY: Queued: `CC(C)(O)c1cccc(Cn2nnc3c(-c4ccccc4)nc(N)nc32)n1`
RESULT: 5.42

QUERY: And `COc1cccc(-c2nc(N)nc3c2nnn3Cc2cccc(C(C)(C)O)n2)c1` ?
RESULT: 6.21

QUERY: Likewise for `Nc1nc(-c2ccccc2)c2nnn(Cc3cccc(C4(O)CCC4)n3)c2n1` ?
RESULT: 5.37

QUERY: Another: `CCOCCOCc1cccc(Cn2nnc3c(-c4ccc(C)o4)nc(N)nc32)n1`
RESULT: 5.60
